Entries and their measured inhibition follow.
# Target System: Glucose transporter (Leishmania mexicana) (UniProt O61059)
# Procedure Text: ST_JUDE_LEISH: Cytotoxicity at 2uM final concentration against transgenic Leishmania Mexicana promastigotes LmGT2 that are glucose transport deficient and complemented with the L. Mexicana glucose transporter 2. Activity is measured by DNA content using SYBR green in vitro
# Assay type: functional

Compound | inhibition / %
O=C(/C=C/c1ccc(Cl)c(Cl)c1)NCCCCCN1CCCN(C(=O)Nc2cccc(Cl)c2)CC1 | 3.37
CN(C)CCCN1CCN(Cc2ccc(-c3ccc(-c4nc5ccccc5[nH]4)s3)cc2)CC1 | 12.1
Cc1ccc(C(CC(=O)Nc2nccs2)c2ccc(OC(C)C)cc2)cc1 (configuration not stated) | -1.31
COc1ccc(C(=O)Nc2ccc3nc(N4CCCCC4)cc(C)c3c2)cc1OC | 0.56
CCC(C)c1ccc(-n2c(Nc3ccccc3)nc3cc(S(N)(=O)=O)ccc32)cc1 (configuration not stated) | 5.77
CC1(C)N=C(N)N=C(N)N1c1ccc(Oc2ccccc2)cc1 | 2.8
CCCCNc1cc(NCCCC)c2c(n1)[nH]c1ccccc12 | 4.43
CC(C)(C)NCCN(Cc1ccc(-c2ccc(C(F)(F)F)cc2)cc1)C(=O)Cn1c(SCc2ccc(F)cc2)nc(=O)c2c1CCC2 | 1.74
COc1ccc(-c2ccc(NC(=O)c3cccc(Cl)c3)cc2)cc1CN1CCCC1 | 4.28
COc1ccc(-c2ccc(NC(=O)c3cccc(F)c3)cc2)cc1CN1CCCN(C)CC1 | -2.3
Clc1ccc(C=NNc2ccnc3cc(Cl)ccc23)cc1 | -0.42
O=C(Nc1ccc(OC2CCN(Cc3ccc(F)cc3)C2)c(Cl)c1)c1cccs1 (configuration not stated) | 0.55
Cn1nc(C(=O)N2CCC(c3[nH]ncc3Cc3ccccc3)CC2)c2ccccc2c1=O | 2.12
Cc1cccc2nc(-c3cccc(-c4ccc(NC(=O)C5CC(=O)Nc6ccccc65)cc4)c3)[nH]c12 (configuration not stated) | 0.15
O=C(Nc1cccc(C(F)(F)F)c1)c1cccc(S(=O)(=O)NC2CCCN(CC3CCCCC3)C2)c1 (configuration not stated) | 0.55
Cc1ccc(F)cc1S(=O)(=O)Nc1ccc(CCN2CCC(N3CCCCC3)CC2)cc1 | 1.36
NC1CCN(Cc2cccc(-c3ccc(-c4nc5cc(F)ccc5[nH]4)cc3)c2)C1 (configuration not stated) | -0.29
CN(C)Cc1ccc2nc(-c3cccc(Cc4cc(Cl)ccc4OCc4ccc(Cl)cc4F)n3)[nH]c2c1 | -1.22
Nc1ncnc2c1ncn2C(CO)Cc1ccc(O)cc1 (configuration not stated) | 8.36
O=C(NCc1cccc(F)c1)Nc1ccc(-c2cccc(-c3nc4ccccc4[nH]3)c2)cc1 | -0.32
O=c1cc(NCCCNCc2cccc(Oc3ccccc3)c2)[nH]c2ccccc12 | 3.25
O=C(Nc1cccc(N2CCC(NCc3cnn(-c4cccc(F)c4)c3)CC2)c1)c1ccncc1 | -0.33
Cc1ccc2[nH]c(NC#N)nc2c1 | 0.78
CCOc1cc2ncnc(Nc3ccc(OCc4c(Cl)cccc4Cl)c(OC)c3)c2cc1OCC | 3.54
C=C(NC(=O)c1cc(C)cc(C)c1)C(=O)OC | 0.67
CC(C)CNC(=O)CN1C(=O)C(c2ccccc2)(c2ccccc2)N=C1N | 2.29
Cc1cc(-c2cccc(CNC3CCN(C)CC3)c2)ccc1S(=O)(=O)NCCc1ccccn1 | 0.73
COc1cc2cc(-c3nc4ccccc4[nH]3)c(N)nc2cc1OC | 67.3
COc1cc2nc(NCCc3ccccc3)nc(NCc3nccs3)c2cc1OC | 0.04
CN(C)Cc1ccc(CN2CCN(CCOc3ccc(-c4ccc(Cl)cc4)cc3)CC2)o1 | 19.2
O=C(N1CCN(c2ccnc3cc4c(cc23)N(Cc2ccccc2)CC4)CC1)C(F)(F)F | 4.39
COC(=O)c1ccc2nc(-c3ccc(C(=O)NCc4ccc(Cl)c(Cl)c4)cc3)[nH]c2c1 | 3.51
